systemTested: UniProt P18891
Sequence (P18891 whole entry): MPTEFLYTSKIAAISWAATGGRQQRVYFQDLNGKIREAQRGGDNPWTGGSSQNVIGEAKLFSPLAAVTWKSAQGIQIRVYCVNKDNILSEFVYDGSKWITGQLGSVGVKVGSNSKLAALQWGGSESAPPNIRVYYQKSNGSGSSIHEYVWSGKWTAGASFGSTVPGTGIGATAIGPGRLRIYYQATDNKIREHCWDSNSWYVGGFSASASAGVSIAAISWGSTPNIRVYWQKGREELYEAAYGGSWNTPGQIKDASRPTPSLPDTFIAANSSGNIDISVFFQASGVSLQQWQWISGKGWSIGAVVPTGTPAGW
Assay type: cell-based
reportedMetric: Inhibition of AAL binding to Colo205 cells (in words)

# molecule, endpointResult
rows = [
    ("C[C@H]1OC(O)[C@H](O)[C@@H](O)[C@H]1O (stereo partly drawn) [D-fucose, d-(+)-Fucose]", "virtually no effect"),
    ("C[C@@H](O)[C@@H](O)[C@H](O)[C@@H](O)C=O [6-deoxy-D-glucose]", "virtually no effect"),
]
